Each recorded value in this set is attributed to paper PMC2248166.

TEST_TARGET: HLA B*5301 (Homo sapiens, UniProt P01889, A329T/A93T/A95T/C349S/D201E/D98Y/E176V/E187L/E204Q/E69T/G107R/I218V/K202T/L105A/L119I/N104I/Q94N/R106L/R155S/R180L/S101N/S121R/S35A/S48A/T118I/V127L/V306I/V36M/Y140S/Y91F)
Type: binding
Give Normalized average relative binding affinity (ARB), HLA B*5301 for every item shown.
Give the figure only, with no unit attached.

The recorded Normalized average relative binding affinity (ARB), HLA B*5301 for XXXDXXXXX [3064.0063] is 0.26

Briefly, Normalized average relative binding affinity (ARB), HLA B*5301 measured for XHXXXXXXX [3064.0027] : 0.0036

sequence XXTXXXXXX [3064.0057] , Normalized average relative binding affinity (ARB), HLA B*5301 observed: 0.045

---

TEST_TARGET: HLA A*3001 (Homo sapiens, UniProt P04439, D140H/D185E/E176W/F33S/G80R/H175R/K168Q/R138E/R41S)
ASSAY_PROCEDURE: biochemical
Where a SMILES comes first, the peptide text is derived from it.
EXPERIMENTAL_READOUT: pIC50
Give only the number. pIC50 is defined as minus log10 of concentration in molar units.

Looking up CC[C@H](C)[C@H](NC(=O)[C@H](Cc1ccc(O)cc1)NC(=O)[C@H](C)NC(=O)[C@H](C)NC(=O)[C@H](Cc1c[nH]cn1)NC(=O)[C@H](CO)NC(=O)[C@@H](N)CCCCN)C(=O)N[C@@H](CC(=O)O)C(=O)N[C@@H](Cc1ccc(O)cc1)C(=O)O [3102.0209] (H-KSHAAYIDY-OH) , I found its pIC50 recorded as 7.92

CC[C@H](C)[C@H](NC(=O)[C@H](Cc1ccc(O)cc1)NC(=O)[C@@H](NC(=O)[C@H](CCCCN)NC(=O)[C@H](CCCCN)NC(=O)[C@H](Cc1ccccc1)NC(=O)[C@@H](N)CCCNC(=N)N)C(C)C)C(=O)N[C@@H](CC(C)C)C(=O)N[C@H](C(=O)O)C(C)C [3102.0055] (H-RFKKVYILV-OH) yielded pIC50 of 7.89

Quick note, pIC50 for CC(C)C[C@H](NC(=O)[C@H](Cc1c[nH]cn1)NC(=O)[C@H](CC(N)=O)NC(=O)[C@H](CC(N)=O)NC(=O)[C@H](CCCNC(=N)N)NC(=O)[C@H](CO)NC(=O)[C@@H](N)[C@@H](C)O)C(=O)N1CCC[C@H]1C(=O)N[C@@H](C)C(=O)O [3102.0126] (H-TSRNNHLPA-OH) landed at 7.82

---

TEST_TARGET: HLA B*0801 (Homo sapiens, UniProt P01889, A93T/A95T/D138N/E176V/E187T/K202T/Q94N/R180D/S35A/V36M/Y33D/Y91F)
ASSAY_PROCEDURE: biochemical
Where a SMILES comes first, the peptide text is derived from it.
Answer each item with its documented IC50.
Give the value in nM but do not write nM after it.

Reported IC50 ( CC[C@H](C)[C@H](NC(=O)[C@H](CO)NC(=O)[C@H](CC(C)C)NC(=O)[C@H](CCSC)NC(=O)[C@H](CO)NC(=O)[C@H](CCCNC(=N)N)NC(=O)[C@@H]1CCCN1C(=O)[C@@H](N)Cc1ccccc1)C(=O)N[C@@H](Cc1ccccc1)C(=O)O [3102.0543] (H-FPRSMLSIF-OH) ) = 9.9

CC[C@H](C)[C@H](NC(=O)[C@@H](NC(=O)[C@H](CO)NC(=O)[C@H](CO)NC(=O)[C@H](CO)NC(=O)[C@H](CCCCN)NC(=O)[C@H](C)NC(=O)[C@@H](NC(=O)[C@@H](N)CC(C)C)[C@@H](C)CC)C(C)C)C(=O)O [3102.1021] (H-LIAKSSSVI-OH) yielded IC50 of 13

Form field IC50, entry CC(C)C[C@H](NC(=O)[C@H](CCCCN)NC(=O)[C@H](CCCNC(=N)N)NC(=O)[C@@H](N)CCCNC(=N)N)C(=O)N[C@@H](CC(C)C)C(=O)N[C@@H](CCCNC(=N)N)C(=O)N[C@@H](CCCNC(=N)N)C(=O)N1CCC[C@H]1C(=O)N[C@@H](Cc1ccccc1)C(=O)O [3102.0530] (H-RRKLLRRPF-OH) : 11

---

Provide the recorded IC50 for the entries that follow.
TEST_TARGET: HLA B*1501 (Homo sapiens, UniProt P01889, A329T/A93T/A95T/C349S/D201E/D98Y/E187L/E204Q/E69M/E70A/K202T/N87E/Q94N/R155S/R180W/S121R/S35A/S48A/V306I/V36M/Y140S/Y91S)
ASSAY_PROCEDURE: biochemical
Where a SMILES comes first, the peptide text is derived from it.
The answer is to be given in nM; state only the numeric part.

Record CC[C@H](C)[C@H](NC(=O)[C@H](CCCNC(=N)N)NC(=O)[C@H](Cc1c[nH]cn1)NC(=O)[C@H](CS)NC(=O)[C@@H](NC(=O)[C@@H](N)CCSC)C(C)C)C(=O)N[C@@H](CC(C)C)C(=O)N[C@H](C(=O)N[C@@H](Cc1ccc(O)cc1)C(=O)O)[C@@H](C)O [3102.0849] (H-MVCHRILTY-OH) , field IC50: 70

Sample CC[C@H](C)[C@H](NC(=O)[C@H](CC(N)=O)NC(=O)[C@H](C)N)C(=O)N[C@H](C(=O)N[C@@H](Cc1c[nH]cn1)C(=O)N[C@@H](Cc1ccccc1)C(=O)N[C@@H](CS)C(=O)N[C@@H](CO)C(=O)N[C@@H](Cc1ccccc1)C(=O)O)[C@@H](C)O [3102.1005] (H-ANITHFCSF-OH) ; IC50 observed: 15

// IC50 lookup, molecule = CC[C@H](C)[C@H](NC(=O)[C@H](CO)NC(=O)[C@@H](N)CCCCN)C(=O)N[C@@H](CCC(=O)O)C(=O)N[C@@H](CCC(N)=O)C(=O)N[C@@H](Cc1c[nH]cn1)C(=O)N1CCC[C@H]1C(=O)N[C@H](C(=O)N[C@H](C(=O)O)C(C)C)C(C)C [3102.0246] (H-KSIEQHPVV-OH) , result: 71

Please fill in: IC50 reported for CC(C)C[C@H](NC(=O)[C@@H](N)CC(C)C)C(=O)N[C@@H](Cc1c[nH]cn1)C(=O)N[C@@H](CS)C(=O)N[C@H](C(=O)N[C@H](C(=O)N[C@@H](CCC(=O)O)C(=O)N[C@@H](CO)C(=O)N[C@@H](Cc1ccc(O)cc1)C(=O)O)[C@@H](C)O)C(C)C [3102.1022] (H-LLHCVTESY-OH) = 1

The molecule identified as CC(C)C[C@H](NC(=O)[C@@H]1CCCN1C(=O)[C@H](CCCNC(=N)N)NC(=O)[C@H](Cc1ccc(O)cc1)NC(=O)[C@H](Cc1ccccc1)NC(=O)[C@@H](NC(=O)CN)C(C)C)C(=O)N[C@@H](Cc1c[nH]cn1)C(=O)N[C@@H](Cc1ccccc1)C(=O)O [3102.0847] (H-GVFYRPLHF-OH) registered its IC50 at 5.5

Value of IC50 reported for the molecule CC[C@H](C)[C@H](NC(=O)[C@H](CO)NC(=O)[C@@H](N)CCCNC(=N)N)C(=O)N[C@@H](CCCNC(=N)N)C(=O)N[C@@H](CCCCN)C(=O)N[C@@H](Cc1ccccc1)C(=O)N[C@@H](CC(N)=O)C(=O)N[C@H](C(=O)N[C@@H](CCSC)C(=O)O)[C@@H](C)O [3102.1003] (H-RSIRKFNTM-OH) is 4.4

According to the records, this molecule CC[C@H](C)[C@H](NC(=O)[C@H](CCC(=O)O)NC(=O)[C@H](Cc1ccccc1)NC(=O)[C@H](Cc1ccccc1)NC(=O)[C@@H](NC(=O)[C@@H](N)Cc1ccc(O)cc1)C(C)C)C(=O)N[C@H](C(=O)N[C@@H](Cc1c[nH]cn1)C(=O)N[C@@H](Cc1ccccc1)C(=O)O)[C@@H](C)CC [3102.1024] (H-YVFFEIIHF-OH) displays IC50 of 0.69

Lab book: IC50 of CC(C)C[C@H](NC(=O)[C@H](Cc1ccc(O)cc1)NC(=O)[C@H](C)NC(=O)[C@@H](N)CCCCN)C(=O)N[C@@H](Cc1ccc(O)cc1)C(=O)N[C@H](C(=O)N[C@@H](CCC(=O)O)C(=O)N[C@@H](Cc1ccc(O)cc1)C(=O)N[C@@H](Cc1ccccc1)C(=O)O)[C@@H](C)O [3102.0995] (H-KAYLYTEYF-OH) noted as 7.6

Measured IC50, CSCC[C@H](NC(=O)[C@@H](N)CO)C(=O)N[C@@H](Cc1c[nH]cn1)C(=O)N[C@@H](Cc1ccccc1)C(=O)N[C@@H](Cc1ccc(O)cc1)C(=O)NCC(=O)N[C@@H](Cc1c[nH]c2ccccc12)C(=O)N[C@@H](CO)C(=O)N[C@@H](CC(C)C)C(=O)O [3102.0946] (H-SMHFYGWSL-OH) : 63

Briefly, IC50 measured for CC[C@H](C)[C@H](NC(=O)[C@@H](N)CCC(N)=O)C(=O)N[C@H](C(=O)N[C@@H](C)C(=O)N[C@@H](Cc1ccc(O)cc1)C(=O)N[C@@H](Cc1ccccc1)C(=O)N[C@@H](CO)C(=O)N[C@@H](CCC(=O)O)C(=O)N[C@@H](Cc1ccccc1)C(=O)O)C(C)C [3102.0816] (H-QIVAYFSEF-OH) : 1.4

// sample CC(C)[C@H](NC(=O)[C@H](C)NC(=O)[C@H](CO)NC(=O)[C@H](Cc1ccc(O)cc1)NC(=O)[C@H](CCCNC(=N)N)NC(=O)CNC(=O)[C@H](Cc1ccc(O)cc1)NC(=O)[C@@H](NC(=O)[C@@H](N)CCCCN)C(C)C)C(=O)O [3102.0117] (H-KVYGRYSAV-OH) , its IC50 was 95
